Parameter IC50: see the listing below.
Test: In vitro inhibition of human platelet aggregation in suspension
MEASURED_QUANTITY: IC50 (nM)

> print(dat)
                                   molecule  reported.value
1  O=C(O)CC(NC(=O)CCC(=O)Nc1ccc2c(c1)CNC2)c1ccccc1 (configuration not stated)             270
2     O=C(O)CCNC(=O)CCC(=O)Nc1ccc2c(c1)CNC2            2090
